# Test system: RXF 393
# measurementNotes: NCI tumour cell line growth inhibition, 48 h
The source made the active and inactive calls. Cut-off read from the data, not from the text of the source: active = GI50 up to about 1.1 µM and inactive = higher.
Form entry, call: pick from active, inactive

Solved entries:
Cn1c(=O)nc2n(-c3cc(C(F)(F)F)cc(C(F)(F)F)c3)c3ccccc3nc-2c1=O ... inactive
O=C(O)CSC(NC(=O)C(C(F)(F)F)C(F)(F)F)(C(F)(F)F)C(F)(F)F ... inactive
CC(C)N1C(C)[C@@H](c2ccccc2)O[P@@]1(=O)CC1=CCCCC1 (stereo partly specified) ... inactive

Input: Could you please tell me the result logged for Cc1ccc(NC(=O)C(=O)C(C#N)c2nc(-c3ccc(-c4ccccc4)cc3)cs2)c(C)c1 (stereo unspecified) in this assay?
Output: inactive

Input: Now consider "Cc1cc(C)nc(NC(P(=O)(O)O)P(=O)(O)O)n1" .
Output: inactive

Input: Now consider "C/C(=N/NC(=S)Nc1cccc(C)c1)c1ccccn1" .
Output: inactive

Input: Now consider "O=C(Nc1ccccc1)OCCN=c1c2ccccc2ccc2ccccc12" .
Output: inactive
